Source listed as patent US11230526B1.

This section presents compounds with their documented pEC50 values.
Biological target: human GPR40 (Homo sapiens)
Construct: expressed in transfected cells
Sequence (O14842 whole entry): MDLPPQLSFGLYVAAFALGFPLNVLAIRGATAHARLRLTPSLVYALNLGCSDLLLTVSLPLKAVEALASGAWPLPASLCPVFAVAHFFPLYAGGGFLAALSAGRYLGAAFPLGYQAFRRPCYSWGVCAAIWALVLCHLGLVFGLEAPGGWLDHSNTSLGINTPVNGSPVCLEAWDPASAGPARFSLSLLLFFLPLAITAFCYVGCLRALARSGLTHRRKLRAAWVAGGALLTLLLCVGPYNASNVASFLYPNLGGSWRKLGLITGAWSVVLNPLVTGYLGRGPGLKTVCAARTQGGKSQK
Experiment: GPR40 calcium flux assay, human GPR40
Assay type: cell-based
Settings: HEK293 cells stably expressing GPR40; table does not say human or rat
pEC50: −log10 of the molar value.
measuredQuantity: pEC50

compound=Cc1ccc(C2=C(COc3ccc(CCC(=O)O)c(C)c3C)CCC2)c(C)c1 result="< 5.30"
compound=O=C(O)CCc1ccc(OCC2=C(c3ccc(Br)cc3)CC(F)(F)C2)cc1Cl result=6.38
compound=O=C(O)CCc1ccc(OCC2=C(c3ccc(Cl)cc3)CCC2)cc1-c1ccccc1 result="< 5.30"
compound=Cc1ccc(C2=C(COc3ccc(CCC(=O)O)c(C)c3C)CC(F)(F)C2)cc1F result="< 5.30"
compound=Cc1cc(CCC(=O)O)cc(Cl)c1OCC1=C(c2ccc(F)cc2)CC(F)(F)C1 result="< 5.30"
compound="O=C(O)CCc1ccc(OCC2=C(C3CCC4CC43)CCC2)cc1C(F)(F)F (stereo not drawn)" result=7.38
compound=O=C(O)CCc1ccc(OCC2=C(Cc3cncs3)CCCC2)cc1C(F)(F)F result=6.49
compound="CCC1CCC(COc2ccc(CCC(=O)O)c(C)c2C)=C1c1ccc(Cl)cc1 (stereo not drawn)" result="< 5.30"
compound=O=C(O)CCc1ccc(OCC2=C(c3ccc(Cl)cc3)CCCC2)c2c1CCC2 result="< 5.30"
compound=O=C(O)CCc1cc(F)c(OCC2=C(c3ccc(F)cc3F)CCC(F)(F)C2)c(F)c1 result="< 5.30"
compound=O=C(O)CCc1ccc(OCC2=C(c3ccc(Cl)cc3)CCC(F)(F)C2)c(F)c1F result="< 5.30"
compound=CCCCC1=C(COc2ccc(CCC(=O)O)cc2)CCCC1 result=5.72
compound=Cc1c(CCC(=O)O)ccc(OCC2=C(c3ccc(F)cc3)CCC(F)(F)C2)c1C result="< 5.30"
compound=Cc1cc(CCC(=O)O)ccc1OCC1=C(c2ccc(F)cc2)CC(F)(F)C1 result="< 5.30"
compound=Cc1ccc(C2=C(COc3ccc(CCC(=O)O)c(F)c3F)CCC2)c(C)c1 result="< 5.30"
compound=O=C(O)CCc1ccc(OCC2=C(C3CCCC3)CCC2)cc1F result=7.09
compound=Cc1ccc(C2=C(COc3ccc(CCC(=O)O)c(F)c3F)CCC2)cc1[N+](=O)[O-] result="< 5.30"
compound=Cc1cc(CCC(=O)O)ccc1OCC1=C(c2cccs2)CCC(F)(F)C1 result=5.39

* * *

Target: human GPR40 (Homo sapiens)
Assay: GPR40 calcium flux assay, human GPR40
Settings: HEK293 cells stably expressing GPR40; table does not say human or rat
pEC50: −log10 of the molar value.
measuredQuantity: pEC50

moleculesmiles=Cc1cc(OCC2=C(c3ccc(Br)cc3)CC(F)(F)C2)c(F)cc1CCC(=O)O resultnumber=5.85
moleculesmiles=Cc1ccc(C2=C(COc3ccc(CCC(=O)O)c(Cl)c3)CCC2)cc1 resultnumber=5.95
moleculesmiles=CCC(CC)C1=C(COc2ccc(CCC(=O)O)c(C(F)(F)F)c2)CCC1 resultnumber=7.08
moleculesmiles=O=C(O)CCc1ccc(OCC2=C(Cc3ccccc3)CC(F)(F)C2)cc1Cl resultnumber=7.31
moleculesmiles=Cc1cc(OCC2=C(c3ccc(Cl)cc3F)CCC2)c(F)cc1CCC(=O)O resultnumber=6.32
